Values were extracted from patent US20260042764A1.

- Subject Of Test: Avi-KRAS WT (2-169) GTP/RAF1 RBD-3xFLAG (51-131) (Homo sapiens)
- Construct: Avi-KRAS WT (2-169)
- Sequence (P01116 2-169 isoform P01116-2): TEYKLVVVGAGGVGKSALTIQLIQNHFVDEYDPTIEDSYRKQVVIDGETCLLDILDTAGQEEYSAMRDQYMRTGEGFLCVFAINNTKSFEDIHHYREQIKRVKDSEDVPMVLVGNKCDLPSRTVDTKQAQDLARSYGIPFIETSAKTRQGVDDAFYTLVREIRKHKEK
- Test Method Notes: Raf1-KRAS WT-GTP disruption HTRF assay (Biological Example 3)
- Format: binding
- Condition Set: KRAS WT, GTP-loaded
Experimental Readout: IC50

>  <Molecule>
CCN(c1nc(OC[C@@]23CCCN2C[C@H](F)C3)nc2c(F)c(-c3ccc(F)c4sc(N)c(C#N)c34)c(C(F)(F)F)cc12)[C@H]1CCN(C(=O)[C@@H]2CCO2)[C@@H]1C (atropisomer, axis not shown) [Compound 918]

>  <Subject Of Test>
Avi-KRAS WT (2-169) GTP/RAF1 RBD-3xFLAG (51-131) (Homo sapiens)

>  <IC50>
≤ 100 nM

$$$$
>  <Molecule>
CCN(c1nc(OC[C@@]23CCCN2C[C@H](F)C3)nc2c(F)c(-c3ccc(F)c4sc(N)c(C#N)c34)c(C(F)(F)F)cc12)[C@H]1CCN(C(=O)C2CC2)C1 [Compound 331]

>  <Subject Of Test>
Avi-KRAS WT (2-169) GTP/RAF1 RBD-3xFLAG (51-131) (Homo sapiens)

>  <IC50>
100 to 1000 nM

$$$$
>  <Molecule>
CCN(c1nc(OC[C@@]23CCCN2C[C@H](F)C3)nc2c(F)c(-c3ccc(F)c4sc(N)c(C#N)c34)c(C(F)(F)F)cc12)[C@H]1CCN(c2ccccn2)C1 [Compound 948]

>  <Subject Of Test>
Avi-KRAS WT (2-169) GTP/RAF1 RBD-3xFLAG (51-131) (Homo sapiens)

>  <IC50>
> 10000 nM

$$$$
>  <Molecule>
CCN(c1nc(OC[C@@]23CCCN2C[C@H](F)C3)nc2c(F)c(-c3ccc(F)c4sc(N)c(C#N)c34)c(C(F)(F)F)cc12)[C@H]1CCN(C(=O)C(C)C)C1 (single isomer, unassigned) [Compound 469]

>  <Subject Of Test>
Avi-KRAS WT (2-169) GTP/RAF1 RBD-3xFLAG (51-131) (Homo sapiens)

>  <IC50>
≤ 100 nM

$$$$

// next item, IC50 requested
Recorded IC50 of CN(c1nc(OC[C@@]23CCCN2C[C@H](F)C3)nc2c(F)c(-c3ccc(F)c4sc(N)c(C#N)c34)c(C(F)(F)F)cc12)[C@H]1CC(=O)N2CCC[C@@H]12 (atropisomer, axis not shown) [Compound 916] , please.
100 to 1000 nM
